- target_entity: MEK1 activated ERK1 (Homo sapiens (Human))
- Sequence (P27361 whole entry): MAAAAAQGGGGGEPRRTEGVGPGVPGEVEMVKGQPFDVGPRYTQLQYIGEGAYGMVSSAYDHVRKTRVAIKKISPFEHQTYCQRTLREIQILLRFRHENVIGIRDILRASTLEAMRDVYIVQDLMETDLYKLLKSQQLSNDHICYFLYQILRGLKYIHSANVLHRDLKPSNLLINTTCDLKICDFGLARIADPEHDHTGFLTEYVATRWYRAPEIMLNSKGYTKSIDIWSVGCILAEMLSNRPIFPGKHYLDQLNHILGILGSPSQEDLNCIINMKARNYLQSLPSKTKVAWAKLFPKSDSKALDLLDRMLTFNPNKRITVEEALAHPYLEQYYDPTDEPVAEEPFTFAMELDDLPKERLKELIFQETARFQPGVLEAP
- assay_summary: Omnia continuous-read kinase assay for potency against MEK1 activated ERK1
- Type: biochemical
- condition_set: MEK1 activated ERK1, WT, ATP at KM
Here, each record is paired with measured IC50 data.

Solved entries:
CC(=O)N1CCC[C@H](Nc2ncc(C(F)(F)F)c(N[C@@H]3[C@H](C(N)=O)[C@H]4C=C[C@@H]3C4)n2)C1 > 1 µM
CCOCCC(=O)Nc1ccccc1Nc1nc(Nc2cc(C(N)=O)ccc2C)ncc1Cl > 1 µM
C=CC(=O)Nc1cc(C)ccc1Nc1nc(Nc2cc(Cl)nc(OC)c2)ncc1Cl > 1 µM
C=CC(=O)Nc1ccccc1Nc1nc(Nc2cc(C(N)=O)c(F)cc2C)ncc1C(F)(F)F < 0.1 µM
C=CC(=O)Nc1ccccc1Nc1nc(N[C@H]2CCC[C@@H](C(N)=O)C2)ncc1C(F)(F)F < 0.1 µM

Q: State measured IC50 of the molecule `C=CC(=O)Nc1cc(C)ccc1Nc1nc(N[C@H]2CCCN(C(=O)CN)C2)ncc1C(F)(F)F` with MEK1 activated ERK1 (Homo sapiens (Human)).
A: < 0.1 µM

Q: State measured IC50 of the molecule `C=CC(=O)Nc1cc(C)ccc1Nc1nc(Nc2cc(OC)cnc2Cl)ncc1C(F)(F)F` with MEK1 activated ERK1 (Homo sapiens (Human)).
A: < 0.1 µM
